Data provenance is ChEMBL document CHEMBL4813963.

molecular target: Epidermal growth factor receptor (Homo sapiens, UniProt P00533)
Sequence (P00533 whole entry): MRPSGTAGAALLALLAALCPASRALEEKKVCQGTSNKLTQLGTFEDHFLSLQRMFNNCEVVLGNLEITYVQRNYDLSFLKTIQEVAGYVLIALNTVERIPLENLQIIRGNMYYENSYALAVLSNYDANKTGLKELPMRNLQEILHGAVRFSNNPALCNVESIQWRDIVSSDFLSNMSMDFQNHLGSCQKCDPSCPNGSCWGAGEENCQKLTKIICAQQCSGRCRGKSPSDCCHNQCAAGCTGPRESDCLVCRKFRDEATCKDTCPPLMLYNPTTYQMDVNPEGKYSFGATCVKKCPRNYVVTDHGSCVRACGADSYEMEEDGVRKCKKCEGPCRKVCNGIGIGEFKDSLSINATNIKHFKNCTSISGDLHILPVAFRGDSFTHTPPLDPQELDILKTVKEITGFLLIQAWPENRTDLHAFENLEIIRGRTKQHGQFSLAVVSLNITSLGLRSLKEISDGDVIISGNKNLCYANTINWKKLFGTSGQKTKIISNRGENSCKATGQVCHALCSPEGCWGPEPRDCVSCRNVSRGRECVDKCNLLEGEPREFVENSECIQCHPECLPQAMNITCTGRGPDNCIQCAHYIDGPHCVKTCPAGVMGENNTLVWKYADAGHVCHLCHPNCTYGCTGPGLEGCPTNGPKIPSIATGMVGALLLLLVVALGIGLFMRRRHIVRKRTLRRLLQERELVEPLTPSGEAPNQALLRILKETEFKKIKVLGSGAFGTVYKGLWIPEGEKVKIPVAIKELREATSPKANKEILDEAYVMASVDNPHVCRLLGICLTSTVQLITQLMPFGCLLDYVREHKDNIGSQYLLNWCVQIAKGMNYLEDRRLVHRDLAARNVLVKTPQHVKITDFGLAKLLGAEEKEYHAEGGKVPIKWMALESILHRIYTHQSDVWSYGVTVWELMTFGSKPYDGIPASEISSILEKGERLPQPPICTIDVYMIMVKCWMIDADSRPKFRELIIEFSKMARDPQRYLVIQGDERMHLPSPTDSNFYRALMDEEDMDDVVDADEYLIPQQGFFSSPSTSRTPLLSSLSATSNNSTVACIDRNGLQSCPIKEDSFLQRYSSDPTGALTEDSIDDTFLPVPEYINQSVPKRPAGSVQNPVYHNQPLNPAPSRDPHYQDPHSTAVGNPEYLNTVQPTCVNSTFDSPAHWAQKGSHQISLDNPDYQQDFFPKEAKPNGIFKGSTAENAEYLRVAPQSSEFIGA
property measured: IC50 (µM)
// note: answer is a bare numeric in µM

Provide value of IC50 for this record tested with Epidermal growth factor receptor (Homo sapiens, UniProt P00533): Cn1cc(-c2cc3ncnc(Nc4ccc(CC(=O)Nc5cc(C(C)(C)C)nn5C)cc4)c3s2)cn1
176

====

test system: KM12; test: Cytotoxicity against human KM12 cells assessed as reduction in cell viability incubated for 72 hrs by resazurin based assay; type: functional; details: KM12, 72 h
The molecules listed here are annotated with their pIC50.
Note on units: pIC50 is unitless, being -log10 of a concentration expressed in mol/L.

> print(dat)
                        structure.smiles  target  experimental.result
1  O=C(c1ccc(Nc2ncnc3ccsc23)cc1)N1CCCCC1    KM12                 3.82

Give the measured pIC50 of Fc1ccc(Nc2ncnc3ccsc23)cc1 .
3.88
